Values were extracted from patent US20170022287A1.

# Measured Target: CRD2-3
# Sequence (chain, as listed by the source limits assumed): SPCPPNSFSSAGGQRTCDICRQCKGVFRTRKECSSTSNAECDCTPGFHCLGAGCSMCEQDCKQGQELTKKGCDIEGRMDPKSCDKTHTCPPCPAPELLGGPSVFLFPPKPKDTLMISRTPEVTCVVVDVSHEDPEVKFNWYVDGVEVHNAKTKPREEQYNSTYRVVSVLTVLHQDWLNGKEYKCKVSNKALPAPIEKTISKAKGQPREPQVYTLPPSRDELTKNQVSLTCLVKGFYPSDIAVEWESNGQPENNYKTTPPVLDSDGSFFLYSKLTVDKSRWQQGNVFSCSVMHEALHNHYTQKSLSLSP
# Protocol Text: ELISA, coated CD137-Fc protein 2 µg/mL, antibody 10 or 5 µg/mL; absorbance 620 nm divided by that of the uncoated well
Measured Attribute: Ratio with respect to Non-Coating

Which value of Ratio with respect to Non-Coating has been reported for R11 (antibody, V domains shown) VH: QVQLLESGGGLVQPGGSLRLSCAASGFTFSSYAMSWVRQAPGKGLEWVSAISGSGGSTYYADSVKGRFTISRDNSKNTLYLQMNSLRAEDTAVYYCARDKWYYYPALDYWGQGTLVTVSS VL: DIQMTQSPSSLSASVGDRVTITCRASQSISSYLNWYQQKPGKAPKLLIYAASSLQSGVPSRFSGSGSGTDFTLTISSLQPEDFATYYCQQFSRFPLTFGGGTKVEIK in the records?
1.3
